# System: Zika virus NS2B-NS3 protease (linked construct)
# assay-overview: Primary screen NINDS Rhodamine qHTS for Zika virus inhibitors (AID 1347160); further: nearly all actives have a fitted effect of over 55% in size
# condition-set: purified NS2B-NS3 protease, Rhodamine110 substrate fluorescence; series mostly up to 57.1 µM
Records with an inconclusive call do not appear. Calls of active or inactive are those of the source. The call rests on the fitted dose curve; in most records, active means well fitted inhibition curve with a large enough effect; inconclusive means small, poorly fitted or top-dose-only effect; inactive means no such curve, though single readings can be large or run the other way.
Outcome codes: TRUE = active, FALSE = inactive

# molecule, label
rows = [
    ("Cc1cc(C)c(NC(=O)N(Cc2ccc3c(c2)Cc2ccccc2-3)C2CCCCCC2)c(C)c1", "FALSE"),
    ("CCCCCCC[C@@H](C/C=C/CCC(=O)NCCc1c[nH]c2ccccc12)OC", "TRUE"),
    ("C/C=C/CC(C)C(O)C1C(=O)NC(CC)C(=O)N(C)CC(=O)N(C)C(CC(C)C)C(=O)NC(C(C)C)C(=O)N(C)C(CC(C)C)C(=O)NC(C)C(=O)NC(C)C(=O)N(C)C(CC(C)C)C(=O)N(C)C(CC(C)C)C(=O)N(C)C(C(C)C)C(=O)N1C (centres undefined)", "FALSE"),
    ("C/C=C/C=C/C1(O)C2C=C3C(=O)CC45C(=O)C(O)=C(C)C(=O)C4C1C1(C(=O)C(O)=C(C)C(=O)C351)C2C (centres undefined)", "TRUE"),
]
